// data source = patent US12428413B2

- Test system: cellular ROCK activity (cofilin phosphorylation at Ser3) in A7r5 rat smooth muscle cells
- PROTOCOL NOTES: Cellular ROCK activity: cofilin (Ser3) phosphorylation, In-Cell Western assay
- Assay type: cell-based
- ASSAY SETUP: Rattus norvegicus, A7R5, 1 h, 1 hour compound incubation, phospho-cofilin (Ser3), read-out: CELL_IC50
MEASUREMENT LABEL: pIC50
Give bare numbers, as −log10 of the molar value.

Before answering, review these 3 worked examples.
{"SAMPLE SMILES": "C[C@H](NC(=O)N1CCN(c2ccncc2F)C[C@H]1C)c1cccc(F)c1Cl", "TARGET": "cellular ROCK activity (cofilin phosphorylation at Ser3) in A7r5 rat smooth muscle cells", "pIC50": 6.55}
{"SAMPLE SMILES": "COc1ccc(F)c([C@@H](C)NC(=O)N2CCN(c3ccncc3F)C[C@H]2C)c1", "TARGET": "cellular ROCK activity (cofilin phosphorylation at Ser3) in A7r5 rat smooth muscle cells", "pIC50": 6.97}
{"SAMPLE SMILES": "COc1ccc(F)c(CNC(=O)N2CCN(c3ccncc3F)C[C@H]2C)c1", "TARGET": "cellular ROCK activity (cofilin phosphorylation at Ser3) in A7r5 rat smooth muscle cells", "pIC50": 6.22}

Quick one: pIC50 for C[C@@H]1CN(c2ccncc2F)CCN1C(=O)NCc1cccc2nn(C)cc12 ?
7.46
